Assay: collision cross section in nitrogen (drift tube, single-field); higher = larger gas-phase ion size;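 note: chemical standards at 10 µM analysed by drift tube IMS-QTOF MS in about 3.95 torr nitrogen, mean of duplicate injections differing ≤1%, mass error below 10 ppm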
Details: ion type: [M+H]; ion source: ESI; ion mode: Positive
Mark Yes for reported collision cross section in nitrogen of 200 Å² or greater; mark No for anything smaller.

Check out these entries, answers already filled in.
CC(C)Nc1nc(Cl)nc(NC(C)C)n1 [2,4-Bis(isopropylamino)-6-chloro-1,3,5-triazine]: No
CCCCCCCCN1CCCC1=O [1-Octyl-2-pyrrolidone]: No
CCCSP(=O)(OCC)Oc1ccc(Br)cc1Cl (stereo not drawn) [Profenofos]: No
COP(=S)(OC)Oc1ccc(SC)c(C)c1 [Fenthion]: No
CC[C@H]1OC(=O)[C@H](C)[C@@H](O[C@H]2C[C@@](C)(OC)[C@@H](O)[C@H](C)O2)[C@H](C)[C@@H](O[C@@H]2O[C@H](C)C[C@H](N(C)C)[C@H]2O)[C@](C)(O)C[C@@H](C)C(=NOCOCCOC)[C@H](C)[C@@H](O)[C@]1(C)O [Roxithromycin]: Yes

API: above_or_equal(metric=collision cross section in nitrogen, cutoff=200 Å²) for item O=S(=O)(O)CCCN1CCOCC1 [4-Morpholinepropanesulfonic acid] No

Identify whether the reported collision cross section in nitrogen of the following compound is 200 Å² or greater: CC1(C)CC(N)CC(C)(C)N1 [2,2,6,6-Tetramethylpiperidin-4-amine] No

Say whether FC(F)C(F)(F)OCC(Cn1cncn1)c1ccc(Cl)cc1Cl (stereo not drawn) [Tetraconazole] shows collision cross section in nitrogen of 200 Å² or more. No

Is the recorded value of collision cross section in nitrogen equal to or greater than 200 Å² for this compound? N=C(NCCCCCCNC(=N)NC(=N)Nc1ccc(Cl)cc1)NC(=N)Nc1ccc(Cl)cc1 [Chlorhexidine diacetate] Yes

For this compound, is measured collision cross section in nitrogen 200 Å² or higher? Cc1ccc(NC(=O)N(C)C)cc1NC(=O)N(C)C [3,3'-(4-Methylbenzene-1,3-diyl)bis(1,1-dimethylurea)] No

Please check the record N#C[C@@H]1CC(F)(F)CN1C(=O)CNC1CC2CCC(C1)N2c1ncccn1 (stereo partly drawn) and state if its collision cross section in nitrogen is at or above 200 Å². No

----------
Assay: collision cross section in nitrogen (drift tube, single-field); higher = larger gas-phase ion size
Conditions: ion type: [M+H]; ion source: APCI; ion mode: Positive
Structures can show the parent of a compound that is named as a salt.
Recorded measurements of collision cross section in nitrogen, one per entry
Give the number; Å² is assumed, so skip it.

CCCC1C(CC)=CC(CC)=CN1c1ccccc1 (stereo not drawn) [3,5-Diethyl-1-phenyl-2-propyl-1,2-dihydropyridine]: 163.4
CN1CCc2cccc3c2[C@H]1Cc1ccc(O)c(O)c1-3 [Apomorphine hydrochloride]: 162.3
Cc1cc(-c2ccc(N)c(C)c2)ccc1N: 166.1
CN(C)CCC(c1ccc(Br)cc1)c1ccccn1 (stereo not drawn) [Brompheniramine hydrogen maleate]: 167.1
CC(C)(C)C(O)/C(=C\c1ccc(Cl)cc1Cl)n1cncn1 (stereo not drawn): 177.9
CCOc1nc2cccc(C(=O)OC(C)OC(=O)OC3CCCCC3)c2n1Cc1ccc(-c2ccccc2-c2nnn[nH]2)cc1 (stereo not drawn): 241.9

Note to self: collision cross section in nitrogen recorded for O=C(c1ccc(OCCN2CCCCC2)cc1)c1c(-c2ccc(O)cc2)sc2cc(O)ccc12 [Raloxifene hydrochloride] was 215.7

collision cross section in nitrogen for CCOP(=S)(OCC)Oc1cc(C)nc(N(CC)CC)n1 is 176.3

----------
# collision cross section in nitrogen per entry
Assay: collision cross section in nitrogen (drift tube, single-field); higher = larger gas-phase ion size
Conditions: ion type: [M+Na]; ion source: ESI; ion mode: Positive
Structures can show the parent of a compound that is named as a salt.
Expressed in Å², but write only the number.

The recorded collision cross section in nitrogen for CCOC(=O)C(C#N)=C(c1ccccc1)c1ccccc1 [Ethyl 2-cyano-3,3-diphenylacrylate] is 180.6

collision cross section in nitrogen in this record for CC(C)(C#N)c1cc(Cn2cncn2)cc(C(C)(C)C#N)c1 : 188.9

Lab note: measured collision cross section in nitrogen of O=C(OCCOCCOC(=O)c1ccccc1)c1ccccc1 [Diethylene glycol dibenzoate] was 180.8

Entry under test: CNC1(c2ccccc2Cl)CCCCC1=O (stereo not drawn) [Ketamine hydrochloride] . Its collision cross section in nitrogen was 158.8

----------
Assay: collision cross section in nitrogen (drift tube, single-field); higher = larger gas-phase ion size
Settings: ion type: [M-H]; ion source: ESI; ion mode: Negative
Recorded endpoint: collision cross section in nitrogen (Å²)
Provide only the numeric value, understood in Å².

CC1(C)CN=C(NN=C(C=Cc2ccc(C(F)(F)F)cc2)C=Cc2ccc(C(F)(F)F)cc2)NC1 [Hydramethylnon]: 234.7
N[C@@H](Cc1c[nH]c2ccccc12)C(=O)O: 151.6

Notebook: CCCCC(CC)C(=O)O (centres undefined) [Barium bis(2-ethylhexanoate)] , collision cross section in nitrogen read as 137.4

Record O=c1c(O)c(-c2ccc(O)cc2)oc2cc(O)cc(O)c12 . Reported collision cross section in nitrogen: 162.2

----------
Assay: collision cross section in nitrogen (drift tube, single-field); higher = larger gas-phase ion size
Conditions: ion type: [M+Na]; ion source: ESI; ion mode: Positive
Recorded endpoint: collision cross section in nitrogen (Å²)
The reply should be a number in Å², with the unit left off.

O=C(O)CONC(=O)c1ccccc1: 150.9
C=C(C)C(=O)OCCOCCOCCOCCOC(=O)C(=C)C [Tetraethyleneglycol dimethacrylate]: 176.9
COCCOCCOCCO [2-[2-(2-Methoxyethoxy)ethoxy]ethanol]: 135.6
C1CN(CCOCCN2CCOCC2)CCO1: 156.9

Reported collision cross section in nitrogen for C=CC(=O)NCNC(=O)C=C [N,N'-Methylenebisacrylamide] was 138.1

Looking up CC(=O)NC1(c2cccc(F)c2)CCN(CC[C@@]2(c3ccc(Cl)c(Cl)c3)CN(c3ccccc3)C(=O)CO2)CC1 , I see its collision cross section in nitrogen listed as 250.7

----------
Experiment: collision cross section in nitrogen (drift tube, single-field); higher = larger gas-phase ion size
Details: ion type: [M+Na]; ion source: ESI; ion mode: Positive
Counter-ions that a name gives are not always drawn.
Recorded endpoint: collision cross section in nitrogen (Å²)
Provide the reading as a plain figure in Å².

Study these solved cases before continuing.
Cc1cc(F)ccc1-c1cc(N2CC[C@@H](O)[C@H]2CO)ncc1N(C)C(=O)C(C)(C)c1cc(C(F)(F)F)cc(C(F)(F)F)c1: 246.4
O=C(NC(=O)c1c(F)cccc1F)Nc1cc(Cl)c(Oc2ncc(C(F)(F)F)cc2Cl)c(Cl)c1: 225.6
CCCCCCCCCC[N+](C)(C)[O-] [N,N-Dimethyldecylamine oxide]: 166.7
NC(=O)c1nc(-c2cccc(-c3cc(F)ccc3OCC(F)(F)C(F)(F)F)c2)n[nH]1: 190.9

Attention now turns to another entry.
collision cross section in nitrogen for COc1ccc(C(CN(C)C)C2(O)CCCCC2)cc1 (stereo not drawn) [Venlafaxine hydrochloride] is 177.7

----------
Test: collision cross section in nitrogen (drift tube, single-field); higher = larger gas-phase ion size
Details: ion type: [M+H]; ion source: APCI; ion mode: Positive
Recorded endpoint: collision cross section in nitrogen (Å²)
Dear colleague, please return just the value in Å², with no unit written.

Completed entries (count: 5):
c1ccc2sc(SN(C3CCCCC3)C3CCCCC3)nc2c1 [N,N-Dicyclohexyl-2-benzothiazolesulfenamide]: 186.2
c1ccc(-c2ccccn2)nc1: 126.4
FC(F)(F)c1ccc(OCCCOc2c(Cl)cc(OCC=C(Cl)Cl)cc2Cl)nc1: 203
CC1=NNC(=O)N(/N=C/c2cccnc2)C1: 154.8
c1ccc2cnccc2c1: 122.3

get_value(item= COc1ccc(C(=O)Nc2nc3ccccc3c(NCc3ccccc3)c2C#N)cc1 , readout=collision cross section in nitrogen) returns 207

O=C(Nc1ccccc1)N(Cc1ccc(Cl)cc1)C1CCCC1 has a reported collision cross section in nitrogen of 180.7

Record CCCC(=NOCC)C1=C(O)CC(CC(C)SCC)CC1=O (centres undefined) , field collision cross section in nitrogen: 181.6

// field: collision cross section in nitrogen; key: CCCCCCCCCCCCN(CCO)CCO ; value = 183.7

----------
Items are presented alongside their recorded collision cross section in nitrogen.
Assay: collision cross section in nitrogen (drift tube, single-field); higher = larger gas-phase ion size
Conditions: ion type: [M+H]; ion source: ESI; ion mode: Positive
Return type: number; implicit unit Å².

Lab note: measured collision cross section in nitrogen of CCOc1nc(NC)nc(NC(=O)NS(=O)(=O)c2ccccc2C(=O)OC)n1 [Ethametsulfuron-methyl] was 197.6

collision cross section in nitrogen recorded for this compound, Cc1ccccc1OP(=O)(Oc1ccccc1C)Oc1ccccc1C [Tri-o-cresyl phosphate] , is 182.3

collision cross section in nitrogen in this record for CC(=O)CCCCn1c(=O)c2c(ncn2C)n(C)c1=O [3,7-Dihydro-3,7-dimethyl-1-(5-oxohexyl)-1H-Purine-2,6-dione] : 160.9

Record summary for CC(C)(C)c1csc(-c2cc3cc(OCc4ccccc4CC(=O)O)ccc3o2)n1 : reported collision cross section in nitrogen = 211.5
